Cited source for all entries: paper PMC9736855

experimental target: MST4 (Homo sapiens, UniProt Q9P289)
Construct: purchased in-house DSF panel (SGC Frankfurt)
Sequence (Q9P289 1-300): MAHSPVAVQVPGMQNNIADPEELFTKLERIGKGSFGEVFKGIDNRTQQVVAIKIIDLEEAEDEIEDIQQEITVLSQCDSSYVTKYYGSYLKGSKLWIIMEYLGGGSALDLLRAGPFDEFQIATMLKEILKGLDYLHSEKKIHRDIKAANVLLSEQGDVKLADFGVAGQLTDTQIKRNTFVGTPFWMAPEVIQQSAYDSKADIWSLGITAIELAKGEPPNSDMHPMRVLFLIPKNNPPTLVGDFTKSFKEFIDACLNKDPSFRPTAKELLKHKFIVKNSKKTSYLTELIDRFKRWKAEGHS
assay overview: DSF
Type: binding
metric name: ΔTm MST4 (°C)

N#CCc1ccc(Nc2nccc(Nc3cc(C4CC4)[nH]n3)n2)cc1 [compound 1, reference compound] = 7.1
COC(=O)c1cc(Nc2ccnc(NCCOCCNC(=O)OC(C)(C)C)n2)[nH]n1 [21d] = 0.7

[a] CC(C)OC(=O)c1cc(Nc2ccnc(NCc3ccc(NC(=O)OC(C)(C)C)cc3)n2)n[nH]1 [42d]
[b] CC(C)(C)OC(=O)Nc1ccc(CNc2nccc(Nc3cc(C(=O)OC(C)(C)C)[nH]n3)n2)cc1 [43d]
[c] COC(=O)c1cc(Nc2ccnc(NCc3ccc(NC(=O)OC(C)(C)C)cc3)n2)[nH]n1 [21i]
Query: Put the entries in order of ΔTm MST4, starting with the largest number. Please, when replying, give the labels in the order that was requested.
Result: a, b, c

---

experimental target: PAK4 (Homo sapiens, UniProt O96013)
Construct: purchased in-house DSF panel (SGC Frankfurt)
Sequence (O96013 291-591): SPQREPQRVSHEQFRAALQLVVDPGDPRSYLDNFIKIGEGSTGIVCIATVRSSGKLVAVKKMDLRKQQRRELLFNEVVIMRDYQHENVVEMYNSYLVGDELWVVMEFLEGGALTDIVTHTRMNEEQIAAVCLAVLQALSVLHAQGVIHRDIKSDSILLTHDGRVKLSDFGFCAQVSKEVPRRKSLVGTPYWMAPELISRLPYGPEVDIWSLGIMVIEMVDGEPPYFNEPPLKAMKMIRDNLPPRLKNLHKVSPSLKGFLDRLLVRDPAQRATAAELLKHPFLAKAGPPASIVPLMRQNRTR
assay overview: DSF
Type: binding
metric name: ΔTm PAK4 (°C)

N#CCc1ccc(Nc2nccc(Nc3cc(C4CC4)[nH]n3)n2)cc1 [compound 1, reference compound] = 7.7

[1] COC(=O)c1cc(Nc2ccnc(NCCOCCNC(=O)OC(C)(C)C)n2)[nH]n1 [21d]
[2] COC(=O)c1cc(Nc2ccnc(NCc3ccc(NC(=O)OC(C)(C)C)cc3)n2)[nH]n1 [21i]
[3] CC(C)(C)OC(=O)Nc1ccc(CNc2nccc(Nc3cc(C(=O)OC(C)(C)C)[nH]n3)n2)cc1 [43d]
[4] CC(C)OC(=O)c1cc(Nc2ccnc(NCc3ccc(NC(=O)OC(C)(C)C)cc3)n2)n[nH]1 [42d]
Query: Ascending by ΔTm PAK4, please: list the compounds accordingly. Rank the items, then write their labels in that order.
Result: 3, 4, 2, 1
(3: -0.9 °C, 4: -0.2 °C, 2: 0.2 °C, 1: 1.0 °C)

---

experimental target: CDK16/Cyclin Y (Homo sapiens)
Construct: Full-length kinases were obtained as plasmids cloned in frame with a terminal NanoLuc-fusion; CS1810C178 (CCNY); host or cells: HEK293T
Sequence (Q00536 whole entry, the tested form may be a part): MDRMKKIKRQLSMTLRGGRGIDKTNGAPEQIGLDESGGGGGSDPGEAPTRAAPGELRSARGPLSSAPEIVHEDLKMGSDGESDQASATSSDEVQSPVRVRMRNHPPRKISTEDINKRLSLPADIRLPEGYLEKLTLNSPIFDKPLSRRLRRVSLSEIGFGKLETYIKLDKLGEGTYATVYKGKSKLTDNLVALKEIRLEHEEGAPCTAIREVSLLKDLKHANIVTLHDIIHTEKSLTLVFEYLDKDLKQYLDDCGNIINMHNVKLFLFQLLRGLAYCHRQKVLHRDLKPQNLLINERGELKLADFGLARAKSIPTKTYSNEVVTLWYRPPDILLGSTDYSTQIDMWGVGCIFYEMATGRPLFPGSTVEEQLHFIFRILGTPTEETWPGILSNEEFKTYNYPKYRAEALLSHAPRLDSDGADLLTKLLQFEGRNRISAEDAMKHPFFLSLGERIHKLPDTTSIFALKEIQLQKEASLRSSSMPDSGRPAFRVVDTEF
Sequence (Q8ND76 2-341 partner limits assumed): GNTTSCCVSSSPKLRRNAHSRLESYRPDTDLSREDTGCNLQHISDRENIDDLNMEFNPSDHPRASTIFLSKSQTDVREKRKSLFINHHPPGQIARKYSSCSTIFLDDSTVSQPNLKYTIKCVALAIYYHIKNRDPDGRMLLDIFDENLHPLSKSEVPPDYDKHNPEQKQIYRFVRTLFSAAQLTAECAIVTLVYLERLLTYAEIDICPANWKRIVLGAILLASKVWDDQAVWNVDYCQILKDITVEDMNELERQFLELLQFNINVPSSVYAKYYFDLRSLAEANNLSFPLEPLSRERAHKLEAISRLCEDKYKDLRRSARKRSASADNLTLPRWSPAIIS
assay overview: NanoBRET
Assay type: cell-based
experimental setup: Figure 7, 11-point dose-response in duplicates; read-out: NanoBRET EC50 ± SEM against CDK16
Experimental: Next, to specifically quantify the outcome of the cellular activity of the compounds, a NanoBRET cellular target engagement assay was performed. […] As mentioned before, the exchange from a methyl ester to an iso-propyl or tert-butyl ester led to a higher stabilization of the kinase in the DSF assay, which correlated with an increase in cellular potency as determined in the NanoBRET assay. […]
pEC50: −log10 of the molar value.
metric name: pEC50

CC(C)(C)OC(=O)NCCCCCNc1ncc(Cl)c(Nc2cc(C3CC3)n[nH]2)n1 [13c] = 6.04

[I] CC(C)(C)OC(=O)NCCc1ccc(Nc2nccc(Nc3cc(C(C)(C)C)n[nH]3)n2)cc1 [40a]
[II] COC(=O)c1cc(Nc2ccnc(Nc3cccc(CCNC(=O)OC(C)(C)C)c3)n2)[nH]n1 [21b]
Query: Please indicate which entry, I or II , has the lower recorded pEC50 value. Write down the label attached to your selection.
Result: I

---

experimental target: CDK2 (Homo sapiens, UniProt P24941)
Construct: purchased in-house DSF panel (SGC Frankfurt)
assay overview: DSF
Type: binding
experimental setup: 10 μM compound
metric name: ΔTm at 10 µM (°C)

Solved cases (6 shown):
CC(C)(C)OC(=O)NCc1ccc(CNc2nccc(Nc3cc(C4CC4)n[nH]3)n2)cc1 [11f] = 8.4
Cc1cnc(NCCCCCCNC(=O)OC(C)(C)C)nc1Nc1cc(C2CC2)n[nH]1 [12e] = 8.1
COC(=O)c1cc(Nc2ccnc(Nc3ccc(CNC(=O)OC(C)(C)C)cc3)n2)[nH]n1 [21h] = 2.5
COC(=O)c1cc(Nc2nc(Nc3cccc(CCNC(=O)OC(C)(C)C)c3)nc3ccccc23)[nH]n1 [23b] = 0.6
CC(C)(C)OC(=O)NCCc1ccc(Nc2ncc(Cl)c(Nc3cc(C4CC4)n[nH]3)n2)cc1 [13a] = 5.9
CNC(=O)c1cc(Nc2ccnc(Nc3ccc(CCNC(=O)OC(C)(C)C)cc3)n2)[nH]n1 [41a] = 1.2

[A] Cc1cc(Nc2ccnc(Nc3ccc(CCNC(=O)OC(C)(C)C)cc3)n2)[nH]n1 [38a]
[B] Cc1cc(Nc2ccnc(NCCCCCNC(=O)OC(C)(C)C)n2)[nH]n1 [38b]
[C] Cc1cnc(NCCCCCNC(=O)OC(C)(C)C)nc1Nc1cc(C2CC2)n[nH]1 [12c]
Query: Order the entries by their reported ΔTm at 10 µM, beginning at the minimum. Answer format: the labels, ordered as requested.
Result: B, C, A
(B: 4.7 °C, C: 7.2 °C, A: 10.7 °C)

---

experimental target: CDK2 (Homo sapiens, UniProt P24941)
Construct: purchased in-house DSF panel (SGC Frankfurt)
assay overview: DSF
Assay type: binding
experimental setup: 10 μM compound
metric name: ΔTm at 10 µM (°C)

COC(=O)c1cc(Nc2nc(NCCOCCNC(=O)OC(C)(C)C)ncc2Cl)[nH]n1 [22d] = 0.2

[a] CC(C)(C)OC(=O)NCCc1ccc(Nc2nccc(Nc3cc(C4CC4)n[nH]3)n2)cc1 [11a]
[b] CNC(=O)c1cc(Nc2ccnc(Nc3ccc(CC#N)cc3)n2)[nH]n1 [41c]
[c] CC(C)(C)OC(=O)NCCCCCNc1nccc(Nc2cc(C(=O)OC(C)(C)C)[nH]n2)n1 [43b]
Query: Please rank these molecules by ΔTm at 10 µM in descending order. Output the labels ranked as instructed.
Result: a, c, b

---

experimental target: CDK16/Cyclin Y (Homo sapiens)
Construct: Full-length kinases were obtained as plasmids cloned in frame with a terminal NanoLuc-fusion; CS1810C178 (CCNY); host or cells: HEK293T
assay overview: NanoBRET
Assay type: cell-based
experimental setup: Figure 7, 11-point dose-response in duplicates; read-out: NanoBRET EC50 ± SEM against CDK16
metric name: EC50 (µM)

[I] CNC(=O)c1cc(Nc2ccnc(NCCCCCNC(=O)OC(C)(C)C)n2)[nH]n1 [41b]
[II] CNC(=O)c1cc(Nc2ccnc(Nc3ccc(CC#N)cc3)n2)[nH]n1 [41c]
[III] CC(C)OC(=O)c1cc(Nc2ccnc(NCCCCCNC(=O)OC(C)(C)C)n2)n[nH]1 [42b]
Query: List the molecules shown above again, sorted by falling EC50 values. Form field (ranking): labels in requested order.
Result: II, I, III

---

experimental target: SLK (Homo sapiens, UniProt Q9H2G2)
Construct: purchased in-house DSF panel (SGC Frankfurt)
assay overview: DSF
Assay type: binding
metric name: ΔTm SLK (°C)

COC(=O)c1cc(Nc2ccnc(NCCOCCNC(=O)OC(C)(C)C)n2)[nH]n1 [21d] = 1.0

[A] COC(=O)c1cc(Nc2ccnc(NCc3ccc(NC(=O)OC(C)(C)C)cc3)n2)[nH]n1 [21i]
[B] CC(C)(C)OC(=O)Nc1ccc(CNc2nccc(Nc3cc(C(=O)OC(C)(C)C)[nH]n3)n2)cc1 [43d]
Query: Select the item whose ΔTm SLK value is smaller, choosing between A and B . Please identify the chosen entry by its label.
Result: B

---

experimental target: CDK16 (Homo sapiens)
Construct: purchased in-house DSF panel (SGC Frankfurt)
assay overview: DSF
Assay type: binding
experimental setup: 10 μM compound
metric name: ΔTm at 10 µM (°C)

[a] CC(C)OC(=O)c1cc(Nc2ccnc(NCc3ccc(NC(=O)OC(C)(C)C)cc3)n2)n[nH]1 [42d]
[b] COC(=O)c1cc(Nc2nc(NCCCCCNC(=O)OC(C)(C)C)ncc2Cl)[nH]n1 [22c]
Query: Among a and b , which shows a numerically higher ΔTm at 10 µM result? Kindly give the label for the entry you pick.
Result: a

[P] Cc1cnc(Nc2ccc(CCNC(=O)OC(C)(C)C)cc2)nc1Nc1cc(C2CC2)n[nH]1 [12a]
[Q] COC(=O)c1cc(Nc2nc(NCCCCCCNC(=O)OC(C)(C)C)ncc2Cl)[nH]n1 [22e]
[R] CC(C)(C)OC(=O)NCCCCCNc1nccc(Nc2cc(C3CC3)[nH]n2)n1 [11c]
[S] CC(C)(C)OC(=O)NCCc1ccc(Nc2ncc(Cl)c(Nc3cc(C4CC4)n[nH]3)n2)cc1 [13a]
Query: List these items ordered by ΔTm at 10 µM, big to small. Write the labels in rank order as requested.
Result: R, P, S, Q
(R: 9.4 °C, P: 6.2 °C, S: 3.2 °C, Q: 0.2 °C)

[P] Cc1cnc(NCCCCCNC(=O)OC(C)(C)C)nc1Nc1cc(C2CC2)n[nH]1 [12c]
[Q] COC(=O)c1cc(Nc2nc(Nc3cccc(CCNC(=O)OC(C)(C)C)c3)nc3ccccc23)[nH]n1 [23b]
[R] COC(=O)c1cc(Nc2ccnc(Nc3ccc(CCNC(=O)OC(C)(C)C)cc3)n2)[nH]n1 [21a]
[S] COC(=O)c1cc(Nc2nc(Nc3cccc(CCNC(=O)OC(C)(C)C)c3)ncc2Cl)[nH]n1 [22b]
Query: Please rank these compounds by ΔTm at 10 µM in descending order. // respond by listing labels in the order requested
Result: P, R, S, Q
(P: 6.5 °C, R: 4.3 °C, S: 0.8 °C, Q: 0.2 °C)
